Molecular target: Membrane-bound ghrelin O-acyltransferase MBOAT4 (Homo sapiens)
Test: Inhibition of human GOAT expressed in baculovirus infected Sf9 cells at 10 uM using octanoyl-CoA and ghrelin-biotin as substrate preincubated for 20 mins followed by substrate addition and measured after = > 1 hr by HTRF assay relative to control
Conditions: time hrs >=1
Hi there, I'd appreciate the recorded inhibition for every entry that follows.
Give bare numbers, in %.

Below, each entry is followed by its recorded inhibition result.
molecule: O=C(O)Cc1csc2cc([S+]([O-])Cc3ccc(Cl)cc3Cl)ccc12 (configuration not stated)
unit text: %
result: 67
//
molecule: O=C(O)CC1CS(=O)(=O)c2cc(OCc3ccc(Cl)cc3Cl)ccc21 (configuration not stated)
unit text: %
result: 79
//
molecule: O=C(O)C[C@H]1COc2cc(OCc3ccc(Cl)cc3Cl)ccc21
unit text: %
result: 86
//
molecule: Cc1c(OCc2ccc(Cl)cc2Cl)cc(C)c2c(CC(=O)O)coc12
unit text: %
result: 103
//
molecule: COC(=O)Cc1csc2cc(OCc3cc(C(F)(F)F)nn3C)cc(F)c12
unit text: %
result: 99.9

Batch request: inhibition per item, same order as input.
1. O=C(O)Cc1csc2cc(OCc3ccc(Cl)cc3Cl)ccc12
2. COC(=O)Cc1c(C)sc2cc(OCc3ccc(C(F)(F)F)nc3C)cc(Cl)c12

99.2
51.5
